B1: POU domain, class 2, transcription factor 1, residues 285 to 354; numbered along this chain, P14859 (parent)
chain: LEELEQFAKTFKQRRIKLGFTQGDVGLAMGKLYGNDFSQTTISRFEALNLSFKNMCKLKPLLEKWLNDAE

Variants of: B1
experiment_description: abundance fitness (aPCA) (normalised: wild type 0, dead -1); higher = more abundant; growth selection in yeast, the domain comes from the species named
condition: Homo sapiens
reported_metric: abundance fitness
Write the number on its own, no unit after it.

# mutant_name, abundance fitness
data = [
    ("K53S", -0.006),
    ("F11Q", -1.11),
    ("N49V", -0.052),
    ("T21V", -0.482),
]

### Prompt For the variant shown here, `N49Q` , give the reported abundance fitness.
### Response 0.007

### Prompt One more variant: `Q39W`
### Response -0.005

### Prompt Follow-up item: `L32A`
### Response -0.006

### Prompt Try the variant `P60Y`
### Response -0.217

### Prompt Query `F11D` next
### Response -1.19

### Prompt Can you check `K31N` next?
### Response -0.217

### Prompt Can you check `L61C` next?
### Response -0.188

### Prompt Proceed to `F52G`
### Response -0.059

### Prompt Now the same for `L62C`
### Response -0.18

### Prompt Next variant up: `R44Q`
### Response 0.042

### Prompt Entry to check: `F52M`
### Response -0.026

### Prompt Query `T41S` next
### Response 0.005
